All figures here come from the Immune Epitope Database (IEDB).

# Target entity: HLA-B*27:20
# Experimental protocol: IEDB peptide-MHC binding, purified MHC/competitive/fluorescence; filed as Kd, often an IC50 or EC50 that approximates it; bounds were set here for any values at or beyond the usual limits of such assays
# Assay setup: source organism: Coxiella burnetii RSA 493
Measured quantity: Kd (nM)
Numeric only. Scale: nM

Problem: Lookup: Kd / HLA-B*27:20 / `YRATYSMAL`
Result: 0.7

* * *

# Target entity: HLA-B*57:01
# Experimental protocol: IEDB peptide-MHC binding, purified MHC/competitive/fluorescence; filed as Kd, often an IC50 or EC50 that approximates it; bounds were set here for any values at or beyond the usual limits of such assays
# Assay setup: source organism: Yersinia pestis Nepal516
Measured quantity: Kd

Problem: // lookup Kd for `SMLCWLGMT`
Result: ≥ 20 µM
